Target: Adenosine receptor A1 (Mesocricetus auratus)
Experiment: Inhibition of specific binding of [3H]CPX to the A1 adenosine receptor in DDT1 MF-2 (DDT) cells.
MET if IC50 is below 60 nM. NOT MET if not; exact matches included in NOT MET.

input: Could you please tell me whether IC50 recorded for CCCn1c(=O)c2[nH]c(-c3ccc(Cl)c([N+](=O)[O-])c3)nc2n(CCC)c1=O is less than 60 nM?
output: NOT MET

input: Would you kindly repeat that for CCCn1c(=O)c2[nH]c(C3CCCC3)nc2n(CCCOC(=O)c2cccc(S(=O)(=O)F)c2)c1=O ?
output: MET

input: Would you kindly repeat that for CCCn1c(=O)c2[nH]c(NC(=O)c3cccc(S(=O)(=O)F)c3)nc2n(CCC)c1=O ?
output: NOT MET

input: Would you kindly repeat that for CCCn1c(=O)c2[nH]c(CCCNC(=O)c3cccc(S(=O)(=O)F)c3)nc2n(CCC)c1=O ?
output: NOT MET

Value source: BindingDB's records for doi:10.1021/jm00043a010
